Test: Single-dose oral and intravenous murine PK
Format: in vivo, female CD-1 mice
Conditions: female, mouse, plasma, 2 mg/kg; CD-1 mice, intravenous 2 mg per kg
READOUT KIND: Cmax (ng/mL)
State the answer as a number, implicitly in ng/mL.

For the molecule CC1(C)OB(O)c2cc(NC(=O)c3ccc(-n4cccn4)cc3Cl)ccc21 , what Cmax is on record?
6820

---

Assay: Single-dose oral and intravenous murine PK
Format: in vivo, female CD-1 mice
Settings: female, mouse, plasma, 2 mg/kg; CD-1 mice, intravenous 2 mg per kg
Method: Single-dose oral and intravenous murine PK studies were performed by WuXi Biologics (Wuxi, China) in female CD-1 mice in compliance with animal care guidelines. […] Fecal AN7973 was measured by extracting AN7973 from homogenized feces with acetonitrile. […] Concentrations below the limit of quantitation were assigned values of zero for generation of mean concentrations. […]
READOUT KIND: clearance (mL/min/kg)
Write the answer as a number in mL/min/kg, unit excluded.

Entry CC1(C)OB(O)c2cc(NC(=O)c3ccc(-n4cccn4)cc3Cl)ccc21 : reported clearance = ?
0.667

---

Assay: Single-dose oral and intravenous murine PK
Format: in vivo, female CD-1 mice
Settings: female, mouse, plasma, 2 mg/kg; CD-1 mice, intravenous 2 mg per kg
READOUT KIND: AUC(0-inf)
Just so you know, I need the unit written after the number.

What value of measured AUC(0-inf) is listed for CC1(C)OB(O)c2cc(NC(=O)c3ccc(-n4cccn4)cc3Cl)ccc21 ?
49700 ng·h/mL

---

Experiment: Single-dose oral and intravenous murine PK
Format: in vivo, female CD-1 mice
Conditions: female, mouse, plasma, 10 mg/kg; CD-1 mice, oral 10 mg per kg; read-out: bioavailability F
READOUT KIND: bioavailability
Hi, when you answer, please include the unit after the number. Thanks!

State the recorded bioavailability for this entry: CC1(C)OB(O)c2cc(NC(=O)c3ccc(-n4cccn4)cc3Cl)ccc21
37%

---

Target: UniProtKB P05177
Sequence (P05177 whole entry): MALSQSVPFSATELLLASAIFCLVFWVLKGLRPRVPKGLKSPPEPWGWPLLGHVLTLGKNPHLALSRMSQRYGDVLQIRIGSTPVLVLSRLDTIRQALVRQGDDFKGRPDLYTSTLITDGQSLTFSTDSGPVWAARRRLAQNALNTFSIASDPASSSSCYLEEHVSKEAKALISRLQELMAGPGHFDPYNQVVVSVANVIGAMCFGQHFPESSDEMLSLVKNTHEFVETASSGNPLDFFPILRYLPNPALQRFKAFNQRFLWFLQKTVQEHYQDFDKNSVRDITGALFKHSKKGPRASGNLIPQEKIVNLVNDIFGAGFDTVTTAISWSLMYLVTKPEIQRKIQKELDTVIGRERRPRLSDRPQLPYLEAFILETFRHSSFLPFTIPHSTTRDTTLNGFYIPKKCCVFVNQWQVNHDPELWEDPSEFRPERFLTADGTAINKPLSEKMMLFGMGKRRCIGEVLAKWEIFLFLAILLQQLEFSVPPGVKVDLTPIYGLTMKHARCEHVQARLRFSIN
Assay: CYP450 inhibition 1A2
Assay type: in vitro ADME
READOUT KIND: inhibition at 10 µM (%)
The reply should contain only the number, in %.

I would be grateful if you could share the reported inhibition at 10 µM for CC1(C)OB(O)c2cc(NC(=O)c3ccc(-n4cccn4)cc3Cl)ccc21 .
1

---

Assay: Single-dose oral calf PK
Type: in vivo, Holstein bull calves
Settings: male, Holstein, bovine, plasma, 5 mg/kg; calves, oral 5 mg per kg
READOUT KIND: AUC(0-inf) (µg·h/mL)
Kindly provide the numeric value in µg·h/mL only, without the unit symbol.

Requested field: AUC(0-inf). Item: CC1(C)OB(O)c2cc(NC(=O)c3ccc(-n4cccn4)cc3Cl)ccc21 [AN7973]
190

---

Experiment: Plasma Protein Binding (mouse)
Type: in vitro ADME
Settings: read-out: Plasma Protein Binding (PPB) (converted)
READOUT KIND: fraction unbound
Respond numerically, and do not add a unit to the figure.

Give the measured fraction unbound of CC1(C)OB(O)c2cc(NC(=O)c3ccc(-n4cccn4)cc3Cl)ccc21 .
0.011

---

Assay: Cytotoxicity murine L929 (3d)
Type: cell-based
Conditions: mouse, L929 cells, 25 µM highest concentration tested
READOUT KIND: IC50 at 3 d

Query: IC50 at 3 d; subject: CC1(C)OB(O)c2cc(NC(=O)c3ccc(-n4cccn4)cc3Cl)ccc21
> 25 µM
